- System: Mus musculus
- PROCEDURE_DETAILS: Potentiation against pentobarbital-induced sleeping, after 1 hour of peroral administration in mouse
- Type: functional
- MEASUREMENT_PARAMETERS: po
// returns FALSE unless ED50 is strictly below 7 mg/kg, in which case TRUE

Check out these entries, answers already filled in.
[in] Would you kindly verify if ED50 of COc1ccccc1N1CCN(CCc2oc(=O)[nH]c2-c2ccc(F)cc2)CC1 [ZOLOPERONE] is strictly less than 7 mg/kg?
[out] FALSE

[in] # repeat for CN(C)CCCN1c2ccccc2Sc2ccc(Cl)cc21 [CHLORPROMAZINE]
[out] TRUE

Others:
[in] Would you kindly verify if ED50 of CN1CCN(C2=Nc3cc(Cl)ccc3Nc3ccccc32)CC1 [CLOZAPINE] is strictly less than 7 mg/kg?
[out] TRUE

[in] # repeat for COc1ccccc1N1CCN(CCCC(=O)c2ccc(F)cc2)CC1 [FLUANISONE]
[out] FALSE

###

- Tested on: Rattus norvegicus
- PROCEDURE_DETAILS: Activity to evoke catalepsy in rats, by administering perorally at a dose of 20 mg/kg
- Type: functional
- MEASUREMENT_PARAMETERS: route oral, read-out: Inhibition
ENDPOINT: percent of rats showing catalepsy at 20 mg/kg (%)
Reply numerically in %, unit not repeated.

[in] Give Rattus norvegicus percent of rats showing catalepsy at 20 mg/kg for "Oc1nc(-c2ccc(F)cc2)c(CCN2CCN(c3cc(Cl)c(Cl)cc3Cl)CC2)o1"
[out] 0

[in] # repeat for "Oc1nc(-c2ccc(F)cc2)c(CCN2CCN(c3ccc(Cl)c(Cl)c3Cl)CC2)o1"
[out] 0

[in] # repeat for "Oc1nc(-c2ccc(F)cc2)c(CCN2CCN(c3cccc(Cl)c3Cl)CC2)o1"
[out] 0

[in] # repeat for "Oc1nc(-c2ccc(-c3ccccc3)cc2)c(CCN2CCN(c3ccccc3)CC2)o1"
[out] 0

###

- PROCEDURE_DETAILS: Lethal dose in mice (LD50) following i.p. dosing
- Type: toxicity, organism-based
- MEASUREMENT_PARAMETERS: mouse, in vivo, ip
ENDPOINT: LD50 (mg/kg)
Reply numerically in mg/kg, unit not repeated.

[in] Consider the compound "CCn1c(-c2ccc(F)cc2)c(CCN2CCN(c3ccccc3)CC2)oc1=O" and give its measured LD50.
[out] 750

Others:
[in] Consider the compound "CCCCn1c(-c2ccc(F)cc2)c(CCN2CCN(c3ccccc3)CC2)oc1=O" and give its measured LD50.
[out] 750

###

- System: Rattus norvegicus
- PROCEDURE_DETAILS: Inhibition against conditioned avoidance response, after 1 hour of peroral administration in rats
- Type: functional
- MEASUREMENT_PARAMETERS: po
ENDPOINT: ED50 (mg/kg)
Reply numerically in mg/kg, unit not repeated.

[in] Consider the molecule "O=C(CCCN1CCC(O)(c2ccc(Cl)cc2)CC1)c1ccc(F)cc1" and give its measured ED50.
[out] 0.23

[in] # repeat for "CN(C)CCCN1c2ccccc2Sc2ccc(Cl)cc21"
[out] 6.8

[in] # repeat for "COc1ccccc1N1CCN(CCCC(=O)c2ccc(F)cc2)CC1"
[out] 25

[in] # repeat for "CN1CCN(C2=Nc3cc(Cl)ccc3Nc3ccccc32)CC1"
[out] 8.6

Proceed to the following item.
[in] Consider the molecule "COc1ccccc1N1CCN(CCc2oc(=O)[nH]c2-c2ccc(F)cc2)CC1" and give its measured ED50.
[out] 3.5

###

Listed next: entries and their corresponding log10(ED50).
- Test system: Rattus norvegicus
- PROCEDURE_DETAILS: Antagonistic activity against amphetamine-induced stereotypy, after 1 hour of peroral administration in rats
- Type: functional
- MEASUREMENT_PARAMETERS: po
Each number you see is log10 of ED50, and the unit inside the log is mg/kg.

Example cases with answers are listed next.
[in] Consider the compound "O=C(CCCN1CCC(O)(c2ccc(Cl)cc2)CC1)c1ccc(F)cc1" and give its measured log10(ED50).
[out] -0.57

[in] # repeat for "COc1ccccc1N1CCN(CCc2oc(=O)[nH]c2-c2ccc(F)cc2)CC1"
[out] 0.72

[in] # repeat for "O=c1[nH]c(-c2ccc(F)cc2)c(CCN2CCN(c3cc(Cl)cc(Cl)c3)CC2)o1"
[out] 1.13

[in] # repeat for "COc1ccccc1N1CCN(CCCC(=O)c2ccc(F)cc2)CC1"
[out] 1.25

Others:
[in] Consider the compound "CN(C)CCCN1c2ccccc2Sc2ccc(Cl)cc21" and give its measured log10(ED50).
[out] 1.29

###

Listed next: entries and their corresponding ED50.
- Tested on: Mus musculus
- PROCEDURE_DETAILS: Antagonistic activity against amphetamine-induced Hypermobility in mouse by administering perorally
- Format: functional
- MEASUREMENT_PARAMETERS: po

[in] Consider the compound "O=c1[nH]c(-c2ccc(F)cc2)c(CCN2CCN(c3cc(Cl)cc(Cl)c3)CC2)o1" and give its measured ED50.
[out] 1.5 mg/kg

Others:
[in] Consider the compound "CN1CCN(C2=Nc3cc(Cl)ccc3Nc3ccccc32)CC1" and give its measured ED50.
[out] 4.5 mg/kg

[in] # repeat for "COc1ccccc1N1CCN(CCCC(=O)c2ccc(F)cc2)CC1"
[out] 16.4 mg/kg

[in] # repeat for "COc1ccccc1N1CCN(CCc2oc(=O)[nH]c2-c2ccc(F)cc2)CC1"
[out] 4 mg/kg

###

- Tested on: Mus musculus
- PROCEDURE_DETAILS: Antagonistic activity against amphetamine-induced hypermotility, after 5 hour of peroral administration in mouse
- Format: functional
- MEASUREMENT_PARAMETERS: po
ENDPOINT: ED50 (mg/kg)
Reply numerically in mg/kg, unit not repeated.

Example cases with answers are listed next.
[in] Consider the molecule O=c1[nH]c(-c2ccc(F)cc2)c(CCN2CCN(c3cc(Cl)cc(Cl)c3)CC2)o1 [LODIPERONE] and give its measured ED50.
[out] 1.9

[in] # repeat for COc1ccccc1N1CCN(CCc2oc(=O)[nH]c2-c2ccc(F)cc2)CC1 [ZOLOPERONE]
[out] 15

[in] # repeat for CN1CCN(C2=Nc3cc(Cl)ccc3Nc3ccccc32)CC1 [CLOZAPINE]
[out] 20.1

Others:
[in] Consider the molecule CN(C)CCCN1c2ccccc2Sc2ccc(Cl)cc21 [CHLORPROMAZINE] and give its measured ED50.
[out] 2.4

[in] # repeat for COc1ccccc1N1CCN(CCCC(=O)c2ccc(F)cc2)CC1 [FLUANISONE]
[out] 18

[in] # repeat for O=C(CCCN1CCC(O)(c2ccc(Cl)cc2)CC1)c1ccc(F)cc1 [HALOPERIDOL]
[out] 0.28

###

Listed next: entries and their corresponding ED50.
- Tested on: Mus musculus
- PROCEDURE_DETAILS: Contractile activity in skeletal muscles, after 1 hour of peroral administration in mouse
- Type: functional
- MEASUREMENT_PARAMETERS: Muscle tissue, po
Reply numerically in mg/kg, unit not repeated.

[in] Consider the molecule "CN1CCN(C2=Nc3cc(Cl)ccc3Nc3ccccc32)CC1" and give its measured ED50.
[out] 40

###

Listed next: entries and their corresponding inhibition in vivo at 100 mg/kg.
- Test system: Mus musculus
- PROCEDURE_DETAILS: Inhibition of spontaneous motor activity in mice, by administering perorally at a dose of 100 mg/kg
- Assay type: functional
- MEASUREMENT_PARAMETERS: route oral
Reply numerically in %, unit not repeated.

[in] Consider the compound "Oc1nc(-c2ccc(F)cc2)c(CCN2CCN(c3cc(Cl)c(Cl)c(Cl)c3)CC2)o1" and give its measured inhibition in vivo at 100 mg/kg.
[out] 0

[in] # repeat for "Oc1nc(-c2ccc(F)cc2)c(CCN2CCN(c3ccc(Cl)c(Cl)c3)CC2)o1"
[out] 21

Others:
[in] Consider the compound "COc1ccc(N2CCN(CCc3oc(O)nc3-c3ccc(F)cc3)CC2)cc1" and give its measured inhibition in vivo at 100 mg/kg.
[out] 33

###

Listed next: entries and their corresponding LD50.
- PROCEDURE_DETAILS: Lethal dose in mice (LD50) following i.p. dosing
- Assay type: toxicity, organism-based
- MEASUREMENT_PARAMETERS: mouse, in vivo, ip

Example cases with answers are listed next.
[in] Consider the compound O=c1[nH]c(-c2ccc(F)cc2)c(CCN2CCN(c3cc(Cl)cc(Cl)c3)CC2)o1 [LODIPERONE] and give its measured LD50.
[out] > 2000 mg/kg

[in] # repeat for "Cc1cccc(N2CCN(CCc3oc(O)nc3-c3ccc(F)cc3)CC2)c1"
[out] > 1000 mg/kg

Proceed to the following item.
[in] Consider the compound COc1ccccc1N1CCN(CCc2oc(=O)[nH]c2-c2ccc(F)cc2)CC1 [ZOLOPERONE] and give its measured LD50.
[out] > 2000 mg/kg
